system.under.test: MS2 coat protein, dlFG mutant (Escherichia phage MS2, UniProt P03612, del68-81insG)
assay.overview: 4 mM Mg2+; no ligand; RNA-MaP array; 100 mM Tris-HCl pH 7.5, 80 mM KCl, 4 mM MgCl2, 0.1 mg/mL BSA, 1 mM DTT, 0.01 mg/mL yeast tRNA, 0.01% Tween-20; protein 1.5 nM to 3 uM; 37 C (Table S3)
experimental.parameters: chain copies: 2; label: tethered by stalled RNA polymerase
reported.endpoint: pKd
To interpret pKd, take it as minus log10 of a concentration measured in moles per litre.

Request: Check the records and state pKd for Eterna 5982897 (Exclusion 6) (ssRNA) RNA: GCAUGCUCCGAGGAUAUCGAAGCUAAUUAUGCACGAGAAGGCGGAACAUGAGGAUCACCCAUGUGAUGCCUAAA
Response: 7.84

Request: Output pKd of Eterna 6415900 (Inverted Small Loop Same State NG 3) (ssRNA) RNA: UGCUACGUUUCGUAGCAGUGUCAUCGAGAAGGCCCUGACAUGAGGAUCACCCAUGUUGUUACAUGGGAGGAUAUCGAUGAUACA
Response: 7.92

Request: Check the records and state pKd for Eterna 6456081 (Exclusion NG 2) (ssRNA) RNA: GGAUAGGACAGAGGAUAUACGUGCUAGAGAUACUAGCAAAAUUUCCACACAUGAGGAUCACCCAUGUAGAAGGCUGUCCUAUCG
Response: 8.23

Request: Consider the binder Eterna 6117727 (Exclusion NG 3) (ssRNA) RNA: GGUUGUCAUAGUCAUCCUUUCCGUACAUGAGGAUCACCCAUGUAGGAUAUGCUACUCACAGUGUGGCAGAAGGGCGUGUGUCUU . State its measured pKd.
Response: 7.77

Shift focus to the following entry.
Request: Give reported pKd value for Eterna 13336 (Sensor for hsa-mir-208a) (ssRNA) RNA: AGUCCAGCCAGAGCUGGACAAAAGCAUGUACAUGAGGAUCACCCAUGUUCAUGUACAAGCUUUUUGCUCGUCUUAAA
Response: 6.23
